Test system: ACHN renal
Assay: NCI tumour cell line growth inhibition, 48 h
TGI listing for selected molecules.

Value of measured TGI for the entry `Cc1cc(C)nc(NS(=O)(=O)c2ccc(NC(=O)c3cccn4c(=O)c5ccccc5nc34)cc2)n1` : > 100 µM

// recorded TGI for `N.N.N.N.N.O=S(=O)([O-])C(F)(F)F.O=S(=O)([O-])C(F)(F)F.[Os+8]` : > 100 µM

Note to self: TGI recorded for `O=S1(=O)C(c2ccccc2)=C(O)c2ccccc21` was > 100 µM

###

# TGI listing for each entry below
System: SK-MEL-28 melanoma
Assay: NCI tumour cell line growth inhibition, 48 h

See these solved cases before continuing.
                                   compound       tested_system  measured_value
0  CN(C)C(=O)C(F)(F)C(c1ccc(Br)cc1)C1C(=O)N(C)C(=O)N(C)C1=O (stereo not given)  SK-MEL-28 melanoma        > 100 µM
1  COc1cc(/C=N\NC(=O)C[N+](C)(C)C)cc(OC)c1OC  SK-MEL-28 melanoma         > 10 µM
2    O=C(N/N=C/c1ccc(Cl)cc1)c1cc(I)cc(I)c1O  SK-MEL-28 melanoma        > 100 µM
3  Cc1nn(C(=O)c2ccncc2)c2c1C(c1cccc([N+](=O)[O-])c1)SC(N)=N2 (stereo not given)  SK-MEL-28 melanoma         > 10 µM

Shifting focus to the compound that follows.
Looking up `CCCCCn1c(=O)c2c(=O)[nH][nH]c2c2ccccc21` , I found its TGI recorded as > 100 µM

###

Test system: M14 melanoma
Assay: NCI tumour cell line growth inhibition, 48 h
# maps each entry to its TGI

// solved cases for TGI follow
Molecule	TGI
CCN(CC)C(=O)COc1cc2c(O)c3c(O)c(C)c4c(c13)C(=O)C(C)(OC=CC(OC)C(C)C(OC(C)=O)C(C)C(O)C(C)C(O)C(C)C=CC=C(C)C(=O)N2)O4 (stereo not drawn)	> 100 µM
Cc1ccc(SC[C@@]2(C(F)F)NC(=O)NC2=O)cc1	> 100 µM
Cc1c(C#N)c2nnn(-c3ccccc3)c(=O)n2c1-c1ccccc1	> 35.6 µM
COc1cc([C@H]2Oc3c(OC)cc(CCCO)cc3[C@@H]2CO)ccc1O	> 100 µM
OCc1ccc(N2CCCC2)cc1Cl	> 100 µM
COc1cc(OC)c2c(O)c(S(=O)(=O)c3ccc(C)cc3)c(=O)oc2c1	> 100 µM
[N-]=[N+]=NC[C@H]1OCO[C@H](CN=[N+]=[N-])[C@H]2OCCOCCOc3ccccc3OCCOCCO[C@@H]21	> 100 µM
CC(=O)Nc1ccc(C(=O)N2N=C(C)/C(=C/c3cccc([N+](=O)[O-])c3)C2=O)cc1	> 100 µM
Cc1cc(S(=O)(=O)Nc2nc3ccccc3n2-c2ccccc2)c(S)cc1Cl	> 100 µM
C=CCC1(CC)C(=O)NC(=O)NC1=O	> 100 µM

CC(NNC(=O)c1ccncc1)c1ccc(Cl)c(Cl)c1 (stereo not drawn) yielded TGI of > 100 µM

For record O=C1CCC2(O)C3Cc4ccc(Oc5nnnn5-c5ccccc5)c5c4C2(CCN3CC2CC2)C1O5 (stereo not drawn) the listed TGI is 33.5 µM

For reference, reported TGI for `O=C1/C(=C/c2cccc(Br)c2)COc2ccc(O)c(O)c21` stands at 3.47 µM

Entry under test: CC(=O)C12C[C@](C#N)(N3CCCCCC3)C1C=Cc1ccccc12 (stereo partly drawn) . Its TGI was > 100 µM

Record summary for `Nc1ccc(-c2nc3ccc(F)cc3s2)cc1` : reported TGI = > 100 µM

Short answer for `COc1ccc2c(c1)/C(=C\c1c[nH]c3ccc(OC)cc13)C(=O)N2` : TGI was 6.14 µM

// Cc1ccc(NC(=O)CC2SC(N)=NC2=O)cc1C (stereo not drawn) : TGI value = > 100 µM

###

Listing of recorded TGI by entry.
System: CAKI-1 renal
Experiment: NCI tumour cell line growth inhibition, 48 h
Where a SMILES comes first, the peptide text is derived from it. Bridges are numbered along the chain shown (N, C = ends). The star is where a group is joined. Cbz = O=C(OCc1ccccc1)*

Example cases with answers are listed next.
Molecule	Tested system	Measured value
COc1ccc2c(c1)/C(=C\c1c[nH]c3ccc(OC)cc13)C(=O)N2	CAKI-1 renal	13.3 µM
O=C(/C=C(\O)c1ccccc1)/C(=C/C(=O)c1ccccc1)NN=C(c1ccccc1)c1ccccc1	CAKI-1 renal	> 100 µM
COC(=O)C1CCCCNC(=O)CCC(NC(=O)OCc2ccccc2)C(=O)N1 (stereo not drawn) (Cbz-Glu-Lys-OMe; lactam 1-2; configuration not given here)	CAKI-1 renal	> 100 µM
Cn1c2c(c3ccccc31)CCN1C(=O)C3SC21C1C(=O)N(c2ccccc2)C(=O)C31 (centres undefined)	CAKI-1 renal	> 100 µM
CSc1ncc2c(n1)-c1ccccc1OC2NC(C)(C)C (centres undefined)	CAKI-1 renal	> 100 µM
O=C1CSC(c2ccccc2O)N1c1nnc(Cn2ccnc2)o1 (centres undefined)	CAKI-1 renal	10.2 µM
C[C@@H]1CC[C@@H](C)[C@](C)(CCc2ccoc2)C/C=C\C=C/1C(=O)O	CAKI-1 renal	> 50 µM
CCC1C(=O)OCc2c1cc1n(c2=O)C(CC)c2c-1nc1ccccc1c2Cl (centres undefined)	CAKI-1 renal	> 100 µM

Query molecule follows.
Form field, TGI with CAKI-1 renal, item `COC1=CC(=O)c2c(O)c3c(c(O)c2C1=O)C[C@](C)(O)C[C@@H]3O` : 45.5 µM

###

Test system: NCI-H226 lung
Assay: NCI tumour cell line growth inhibition, 48 h
Recorded metric: TGI

>>> df
                                   compound  recorded_metric  measured_value
0  Nc1ncnc2c1nnn2C1C=C(CO)C(O)C1O (stereo not given)              TGI        > 100 µM
1  CC1(C)CCCCCCCCCC(C)(CCCCCCCCCCCCO)C1=O (stereo not given)              TGI         22.5 µM
2  COc1ccc(/C(=N/Nc2nc3ccccc3[nH]2)C(=O)O)cc1              TGI        > 100 µM

compound `CCSc1nc(N)c(C#N)c(-c2ccco2)c1C#N` , TGI observed: > 100 µM

// recorded TGI for `O=S(=O)(O)c1cc(O)c2c(O)c(N=Nc3cccc4ccccc34)c(S(=O)(=O)O)cc2c1` : > 100 µM

GET /value?item= `CN(/N=N/c1nc[nH]c1C(N)=O)C1CCCCC1` &field=TGI returns > 100 µM

###

// TGI lookup, one value per entry
System: NCI-H23 lung
Test: NCI tumour cell line growth inhibition, 48 h
API: value field is a number in µM; no unit string.

Example cases with answers are listed next.
Compound	Scale unit	TGI
CC1(C)CCCCCCCCCC(C)(CCCCCCCCCCCCO)C1=O (configuration not stated)	µM	33.7
CC1=C[C@@H](C)C[C@]2(C)CC[C@H](O2)[C@]23CC[C@](C)(C[C@H](O2)[C@@H]2O[C@@](C)(CC2=O)[C@@H](O)[C@H]2CC[C@@]4(CCC[C@@H](O4)[C@H](C)C(=O)O[C@H]4C[C@H]([C@]5(O)OCC[C@H](C)[C@@H]5O)O[C@H]4C=C1)O2)O3	µM	0.0826
CCn1c2ccc(O)c(C(=O)OC)c2c2cc3ccccc3c(O)c21	µM	52.4
Nc1ccc(C(=O)NN2C(=O)C(Cl)C2c2cccc(O)c2)cc1 (configuration not stated)	µM	33.2
N.N.N.N.N.O=S(=O)([O-])C(F)(F)F.O=S(=O)([O-])C(F)(F)F.[Os+8]	µM	19.1

// field: TGI; key: `Oc1c(Cl)cc(Cl)c2cccnc12` ; value = 42.5

compound `O=c1c(-c2ccccc2)coc2cc(OC/C(=N/O)c3ccc(F)cc3)ccc12` , TGI observed: 42.1

COc1cccc(C2C(C#N)=C(N)Oc3c2ccc2ccccc32)c1 (configuration not stated) has a reported TGI of 6.74

Just so you know, measured TGI for `CC[C@H]1C=CCC[C@@]2(C[C@@H]3CC[C@@H]4[C@H](C(=O)OCCCCCCCCCCCCCCCC(=O)N(CCCN)CCCCN)[C@]5(CCC[C@@H](C)O5)NC(=[N+]34)N2)O1` came out at 1.07

The recorded TGI for entry `C=CC(C)(C)c1cc([C@@H]2COc3cc(O)ccc3C2=O)c(O)c(O)c1OC` equals 34

Recorded TGI (compound `O=C1/C(=C/c2cccc(Br)c2)COc2ccc(O)c(O)c21` ): 4.25

Note to self: TGI recorded for `O=C(Nc1cnc(C(F)(F)F)cn1)c1cc(Cl)ccc1O` was 1.22

Kindly note the recorded TGI for `COCCOCOC(C)(C)[C@H](CCOC(C)=O)O[Si](c1ccccc1)(c1ccccc1)C(C)(C)C` , which is 80
